measured-target: T1, Cyno PD-L2-Fc (cynomolgus, UniProt A0A2K5U5Z4 20-220)
T1 construct: also called cynomolgus PD-L2; not shown: Fc
T1 sequence: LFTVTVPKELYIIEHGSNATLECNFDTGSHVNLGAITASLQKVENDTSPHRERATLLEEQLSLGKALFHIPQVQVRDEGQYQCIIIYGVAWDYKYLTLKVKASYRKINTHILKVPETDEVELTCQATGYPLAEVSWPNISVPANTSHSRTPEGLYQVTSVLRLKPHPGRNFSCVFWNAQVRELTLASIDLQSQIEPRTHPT
assay-overview: ForteBio, IgG, avid
readout-kind: pKd
Recall that pKd is obtained by taking minus log10 of the concentration measured in molar.

## Input Consider the binder shown here: BiPDL3-14 (antibody, V domains shown, IgG; also called ADI-37464; 37464) VH: QVQLQQWGAGLLKPSETLSLTCAVYGGSLSGYPWSWIRQPPGKGLEWIGETDVSGWTDYNPSLKSRVTISVDTSKNQFSLKLSSVTAADTAVYYCARDGRRMGTPSFDIWGQGTMVTVSS VL: DIQMTQSPSSVSASVGDRVTITCRASQGINSFLAWYQQKPGKAPKLLIYAASSLNSGVPSRFSGSGSGTDFTLTISSLQPEDFATYYCQKAVYFPPTFGGGTKVEIK What is its recorded pKd?
## Output 9.27

## Input Consider the binder shown here: BiPDL3-34 (antibody, V domains shown, IgG; also called ADI-37468; 37468) VH: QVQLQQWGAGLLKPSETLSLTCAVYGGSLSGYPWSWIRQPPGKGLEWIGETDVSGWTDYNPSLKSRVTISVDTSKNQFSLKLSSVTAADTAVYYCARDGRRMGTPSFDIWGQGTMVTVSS VL: DIQMTQSPSSVSASVGDRVTITCRASQDISSFLAWYQQKPGKAPKLLIYAASSLQDGVPSRFSGSGSGTDFTLTISSLQPEDFATYYCQKSVYFPPTFGGGTKVEIK What is its recorded pKd?
## Output 9.17

## Input Consider the binder shown here: BiPDL3-44 (antibody, V domains shown, IgG; also called ADI-37475; 37475) VH: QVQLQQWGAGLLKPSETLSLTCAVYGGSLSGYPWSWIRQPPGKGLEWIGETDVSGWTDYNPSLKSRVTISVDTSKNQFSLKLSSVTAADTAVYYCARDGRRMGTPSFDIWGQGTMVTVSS VL: DIQMTQSPSSVSASVGDRVTITCRASQGISTFLAWYQQKPGKAPKLLIYAASALHSGVPSRFSGSGSGTDFTLTISSLQPEDFATYYCQRAVYFPPTFGGGTKVEIK What is its recorded pKd?
## Output 9.22
